Test: activity coefficient (dimensionless); of the first substance listed, at infinite dilution; xn = mol fraction of the nth substance listed
Settings: 333.15 K; Liquid; Chromatography; x1 = 0
This listing pairs molecules with measured activity coefficient.
Experimental endpoint: activity coefficient

[[record]]
molecule = "CC(C)CO [2-methyl-1-propanol] + CCCOC[n+]1ccc(N(C)C)cc1.O=S(=O)([N-]S(=O)(=O)C(F)(F)F)C(F)(F)F"
meas_value = 1.92

[[record]]
molecule = "CCCCCCCCCC [decane] + CCCOC[n+]1ccn(C)c1.N#C[N-]C#N"
meas_value = 356

[[record]]
molecule = "CC#N [acetonitrile] + CCCCCCCCn1cc[n+](COCCCOC[n+]2ccn(CCCCCCCC)c2C)c1C.N#C[N-]C#N.N#C[N-]C#N"
meas_value = 0.46

[[record]]
molecule = "ClCCl [dichloromethane] + CCCOC[n+]1ccn(Cc2ccccc2)c1.O=S(=O)([N-]S(=O)(=O)C(F)(F)F)C(F)(F)F"
meas_value = 0.44

[[record]]
molecule = "CC1CCCC1 [methylcyclopentane] + CCCOC[n+]1ccn(Cc2ccccc2)c1.N#C[N-]C#N"
meas_value = 15.2

[[record]]
molecule = "c1ccncc1 [pyridine] + CCCOC[n+]1ccn(Cc2ccccc2)c1.N#C[N-]C#N"
meas_value = 0.69

[[record]]
molecule = "ClC(Cl)Cl [trichloromethane] + CCCOC[n+]1ccn(C)c1.O=S(=O)([N-]S(=O)(=O)C(F)(F)F)C(F)(F)F"
meas_value = 1.06

[[record]]
molecule = "ClCCl [dichloromethane] + CCCCCCCCn1cc[n+](COCCC)c1C.N#C[N-]C#N"
meas_value = 0.37

[[record]]
molecule = "CCCCCCCCCCC [undecane] + CCCCCCCCn1cc[n+](COCCCOC[n+]2ccn(CCCCCCCC)c2C)c1C.O=S(=O)([N-]S(=O)(=O)C(F)(F)F)C(F)(F)F.O=S(=O)([N-]S(=O)(=O)C(F)(F)F)C(F)(F)F"
meas_value = 11.1

[[record]]
molecule = "CC(C)O [propan-2-ol] + CN(C)c1cc[n+](COCCCOC[n+]2ccc(N(C)C)cc2)cc1.O=S(=O)([N-]S(=O)(=O)C(F)(F)F)C(F)(F)F.O=S(=O)([N-]S(=O)(=O)C(F)(F)F)C(F)(F)F"
meas_value = 1.3

[[record]]
molecule = "CCCO [propan-1-ol] + CCCCCCCCn1cc[n+](COCCCOC[n+]2ccn(CCCCCCCC)c2C)c1C.N#C[N-]C#N.N#C[N-]C#N"
meas_value = 0.32

[[record]]
molecule = "ClC(Cl)Cl [trichloromethane] + CCCOC[n+]1ccn(C)c1.F[B-](F)(F)F"
meas_value = 1.8

[[record]]
molecule = "CCCCCCCCCC [decane] + CN(C)c1cc[n+](COCCCOC[n+]2ccc(N(C)C)cc2)cc1.O=S(=O)([N-]S(=O)(=O)C(F)(F)F)C(F)(F)F.O=S(=O)([N-]S(=O)(=O)C(F)(F)F)C(F)(F)F"
meas_value = 71

[[record]]
molecule = "C=CCCCC [hex-1-ene] + CCCOC[n+]1ccc(N(C)C)cc1.O=S(=O)([N-]S(=O)(=O)C(F)(F)F)C(F)(F)F"
meas_value = 6.79

[[record]]
molecule = "C#CCCCCC [1-heptyne] + CCCOC[n+]1ccn(Cc2ccccc2)c1.F[B-](F)(F)F"
meas_value = 8.35

[[record]]
molecule = "C=CCCCC [hex-1-ene] + CCCCCCCCn1cc[n+](COCCC)c1C.N#C[N-]C#N"
meas_value = 4.37

[[record]]
molecule = "CCCCO [butan-1-ol] + CCCOC[n+]1ccn(Cc2ccccc2)c1.N#C[N-]C#N"
meas_value = 0.88

[[record]]
molecule = "c1ccccc1 [benzene] + CCCOC[n+]1ccn(C)c1.O=S(=O)([N-]S(=O)(=O)C(F)(F)F)C(F)(F)F"
meas_value = 1.17

[[record]]
molecule = "CCOCC [diethyl ether] + CCCCCCCCn1cc[n+](COCCCOC[n+]2ccn(CCCCCCCC)c2C)c1C.N#C[N-]C#N.N#C[N-]C#N"
meas_value = 2.33

[[record]]
molecule = "Cc1cccc(C)c1 [1,3-dimethylbenzene] + CCCCCCCCn1cc[n+](COCCCOC[n+]2ccn(CCCCCCCC)c2C)c1C.N#C[N-]C#N.N#C[N-]C#N"
meas_value = 1.37

[[record]]
molecule = "CCN(CC)CC [triethylamine] + CCCOC[n+]1ccn(C)c1.N#C[N-]C#N"
meas_value = 15.7

[[record]]
molecule = "Cc1ccccc1C [1,2-dimethylbenzene] + CCCOC[n+]1ccn(C)c1.F[B-](F)(F)F"
meas_value = 8.97

[[record]]
molecule = "CCCC(C)=O [pentan-2-one] + Cn1cc[n+](COCCCOC[n+]2ccn(C)c2)c1.N#C[N-]C#N.N#C[N-]C#N"
meas_value = 3.5

[[record]]
molecule = "CCCO [propan-1-ol] + Cn1cc[n+](COCCCOC[n+]2ccn(C)c2)c1.N#C[N-]C#N.N#C[N-]C#N"
meas_value = 1.17

[[record]]
molecule = "c1ccncc1 [pyridine] + CCCCCCCCn1cc[n+](COCCC)c1C.O=S(=O)([N-]S(=O)(=O)C(F)(F)F)C(F)(F)F"
meas_value = 0.34

[[record]]
molecule = "CCCCCCCCC [nonane] + N#C[N-]C#N.N#C[N-]C#N.c1ccc(Cn2cc[n+](COCCCOC[n+]3ccn(Cc4ccccc4)c3)c2)cc1"
meas_value = 264

[[record]]
molecule = "CCC(C)=O [butanone] + CCCOC[n+]1ccn(C)c1.F[B-](F)(F)F"
meas_value = 1.6

[[record]]
molecule = "CCCCCCC [heptane] + CCCOC[n+]1ccn(C)c1.O=S(=O)([N-]S(=O)(=O)C(F)(F)F)C(F)(F)F"
meas_value = 20.4

